TGT: UniProt:P11387
Sequence (P11387 1-765): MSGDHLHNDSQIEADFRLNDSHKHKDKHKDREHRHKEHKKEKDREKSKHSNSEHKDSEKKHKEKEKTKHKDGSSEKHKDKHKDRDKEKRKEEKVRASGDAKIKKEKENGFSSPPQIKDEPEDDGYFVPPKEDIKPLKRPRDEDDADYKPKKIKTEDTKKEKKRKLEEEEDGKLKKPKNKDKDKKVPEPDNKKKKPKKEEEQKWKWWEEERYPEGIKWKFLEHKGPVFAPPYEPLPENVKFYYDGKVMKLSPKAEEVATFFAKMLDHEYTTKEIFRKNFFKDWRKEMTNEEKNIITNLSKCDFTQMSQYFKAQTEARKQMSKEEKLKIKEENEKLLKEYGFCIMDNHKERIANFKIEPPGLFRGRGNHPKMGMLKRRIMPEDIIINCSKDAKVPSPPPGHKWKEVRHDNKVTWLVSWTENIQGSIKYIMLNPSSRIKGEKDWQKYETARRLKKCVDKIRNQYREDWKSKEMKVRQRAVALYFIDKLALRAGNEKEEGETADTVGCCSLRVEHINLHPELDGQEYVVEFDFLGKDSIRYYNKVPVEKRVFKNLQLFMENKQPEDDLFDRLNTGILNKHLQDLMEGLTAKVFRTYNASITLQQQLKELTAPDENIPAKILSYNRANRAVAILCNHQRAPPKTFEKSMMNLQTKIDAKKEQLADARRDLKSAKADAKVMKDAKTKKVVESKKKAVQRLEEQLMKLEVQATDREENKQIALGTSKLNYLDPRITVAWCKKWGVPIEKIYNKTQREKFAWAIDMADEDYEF
ASSAY INFO: Top1-mediated DNA cleavage assay
Type: biochemical
Parameters: key: 0: no inhibitory activity; +: between 20% and 50% activity; ++: between 50% and 75% activity; +++: between 75% and 95% activity; ++++: equipotent; +++++: more potent
RUN PARAMETERS: Table 1; graded relative to 1 μM camptothecin

>  <COMPOUND>
Cl.NCCCn1c2c(c3ccc([N+](=O)[O-])cc3c1=O)C(=O)c1cc3c(cc1-2)OCO3 [Compound 16]

>  <Top1 inhibitory activity>
++++

$$$$
>  <COMPOUND>
COc1ccc2c(c1)C(=O)c1c-2n(CCCNCCO)c(=O)c2cc([N+](=O)[O-])ccc12 [Compound 15]

>  <Top1 inhibitory activity>
++++

$$$$
>  <COMPOUND>
COc1ccc2c(c1)C(=O)c1c-2n(CCCN)c(=O)c2cc([N+](=O)[O-])ccc12 [Compound 6]

>  <Top1 inhibitory activity>
++++

$$$$

---

Measured MGM (μM), cytotoxicity mean-graph midpoint of individual entries
Test system: NCI panel of 60 human cancer cell lines
ASSAY INFO: Cytotoxicity mean-graph midpoint in NCI panel of 60 cancer cell lines
Type: cell-based
RUN PARAMETERS: Table 2; approximate average of GI50 across the panel
READOUT: MGM (μM), cytotoxicity mean-graph midpoint (µM)

>  <COMPOUND>
COc1cc2c3c(n(CCCN4CCOCC4)c(=O)c2cc1OC)-c1cc2c(cc1C3=O)OCO2 [drawing 73]

>  <DATA VALUE>
0.079

$$$$
>  <COMPOUND>
NCCCn1c2c(c3ccc(Br)cc3c1=O)C(=O)c1cc3c(cc1-2)OCO3

>  <DATA VALUE>
0.329

$$$$
>  <COMPOUND>
NCCCn1c2c(c3ccc([N+](=O)[O-])cc3c1=O)C(=O)c1cc3c(cc1-2)OCO3

>  <DATA VALUE>
0.090

$$$$
>  <COMPOUND>
COc1cc2c3c(n(CCCN4CCOCC4)c(=O)c2cc1OC)-c1cc2c(cc1C3=O)OCO2 [drawing 72]

>  <DATA VALUE>
4.64

$$$$

Each recorded value in this set is attributed to patent US20160367685A1.
